assay: label from the status in PepcDB records;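 further: failed if final PepcDB status was selected cloned or expressed and not failed if soluble or beyond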

[
  {
    "sequence text": "MVFDAIVVTDLQGFIIDWNKGSETLYGYSKEQAIGQPVNMLHVPGDTEHITSEVISAVENQGKWTGEIRMLHKDGHIGWIESMCVPIYGENYQMVGALGINRDITKRKKELEHHHHHH",
    "protein production": "failed"
  },
  {
    "sequence text": "MQSNLLAVLFALASALTIAWGTVVRHRIALRTPKDGSLRSSPLLNALMTPMWWAGMSTAMLAYFLQTVALGFGTLLVVQPVLVLSLMFTLPLSARFNGYRLRRTEIFWATLLTVAVGIMIVLGRPLPGNPHPPLDRWIPVLLVGVAVMGGMWLLAEYVLKKDKALILGLVTGALFGYVAVMSKAAVDLFVHQGITGLILNWEGYGLILTALLGTIVQQYSFNAGELQKSLPAMTIAEPIVAFSLGYLVLGEKFQVVDWEWIAMGIALLVMIVSTIALSRTSTMPAGSKR",
    "protein production": "failed"
  }
]
